# target.desc: hT2R14 (Homo sapiens (Human), UniProt Q9NYV8)
# Sequence (Q9NYV8 whole entry): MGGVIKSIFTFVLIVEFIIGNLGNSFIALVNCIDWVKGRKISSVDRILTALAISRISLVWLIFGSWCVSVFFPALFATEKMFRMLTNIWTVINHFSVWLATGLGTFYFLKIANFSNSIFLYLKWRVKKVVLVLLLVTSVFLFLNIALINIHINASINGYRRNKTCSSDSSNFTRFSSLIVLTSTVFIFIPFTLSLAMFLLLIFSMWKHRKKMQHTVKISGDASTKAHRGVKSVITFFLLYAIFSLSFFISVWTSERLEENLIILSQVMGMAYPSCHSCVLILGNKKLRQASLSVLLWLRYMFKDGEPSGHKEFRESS
# method.notes: hT2R14 antagonist high-throughput FLIPR assay, stable cell line with G16g44, agonist aristolochic acid
# Type: cell-based
# assay.context: Table C; read-out: hT2R14 IC50
Kindly supply the reported pIC50 values for the records listed here.
Formally, pIC50 is defined as -log10 of the concentration c, with c in mol/L.

Lab book: pIC50 of COc1cccc(CN(CC2CCC(C(=O)O)CC2)S(=O)(=O)c2ccc(C)cc2)c1 (centres unmarked) [Example 5-128] noted as 7.44

Lab book: pIC50 of COc1ccccc1CN(Cc1ccc(C(=O)O)cc1)S(=O)(=O)c1ccccc1 [Example 5-100] noted as 5.89

Lab book: pIC50 of Cc1ccc(CN(Cc2ccccc2)S(=O)(=O)c2ccc(C(=O)O)cc2)cc1 [Example 5-132] noted as 5.27

Lab book: pIC50 of COc1ccc(CN(Cc2ccccc2)S(=O)(=O)c2ccc(C(=O)O)cc2)cc1C [Example 5-144] noted as 5.70

Lab book: pIC50 of CC(=O)Nc1ccc(S(=O)(=O)N(Cc2ccc(F)cc2)CC2CCC(C(=O)O)CC2)cc1 (centres unmarked) [Example 5-124] noted as 6.07

Lab book: pIC50 of Cc1cccc(CN(Cc2ccccc2)S(=O)(=O)c2ccc(C(=O)O)cc2)c1 [Example 5-135] noted as 5.64

Lab book: pIC50 of COc1ccc(CN(CC2CCC(C(=O)O)CC2)C(=S)Nc2ccc(C)c(Cl)c2)cc1 (centres unmarked) [Example 5-111] noted as 5.21

Lab book: pIC50 of CCOC(=O)C1CCC(CN(Cc2ccccc2)S(=O)(=O)c2ccc(NC(C)=O)cc2)CC1 (centres unmarked) [Example 5-115] noted as 6.48

----------
Kindly supply the reported inhibition at 25 µM values for the records listed here.
# target.desc: hT2R75 (Homo sapiens (Human), UniProt P59540)
# Sequence (P59540 whole entry): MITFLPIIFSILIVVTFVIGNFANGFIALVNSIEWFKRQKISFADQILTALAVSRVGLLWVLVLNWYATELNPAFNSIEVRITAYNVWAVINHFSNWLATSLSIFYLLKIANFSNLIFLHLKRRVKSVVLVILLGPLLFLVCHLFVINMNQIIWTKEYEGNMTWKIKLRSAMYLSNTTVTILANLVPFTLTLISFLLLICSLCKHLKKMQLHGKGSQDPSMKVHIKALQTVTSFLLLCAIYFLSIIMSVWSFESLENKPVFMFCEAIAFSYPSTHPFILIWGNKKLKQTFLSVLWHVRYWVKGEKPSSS
# method.notes: hT2R panel inhibition, transient HEK293 G16g44, agonist Strychnine 1 μM
# Type: cell-based
# assay.context: HEK293, read-out: screening result against bitter receptor 75, compound at 25 μM; receptor activated to EC80 with the corresponding agonist

Lab book: inhibition at 25 µM of Cc1ccc(S(=O)(=O)N(Cc2ccc(F)cc2)CC2CCC(C(=O)O)CC2)cc1 (stereo not shown) noted as 40 to 60%

Lab book: inhibition at 25 µM of COc1ccccc1CN(Cc1ccco1)S(=O)(=O)c1ccc(C(=O)O)cc1 noted as 20 to 40%

Lab book: inhibition at 25 µM of COc1ccc(CN(C(C)c2ccccc2)S(=O)(=O)c2ccc(C(=O)O)cc2)cc1 (stereo not shown) noted as 20 to 40%

Lab book: inhibition at 25 µM of COc1cccc(CN(Cc2ccco2)S(=O)(=O)c2ccc(C(=O)O)cc2)c1 noted as 20 to 40%

Lab book: inhibition at 25 µM of COc1ccccc1CN(Cc1ccccc1)S(=O)(=O)c1ccc(C(=O)O)cc1 noted as 20 to 40%

Lab book: inhibition at 25 µM of O=C(O)c1ccc(CN(Cc2ccc(F)cc2)S(=O)(=O)c2ccccc2)cc1 noted as 20 to 40%

Lab book: inhibition at 25 µM of COc1ccc(CN(Cc2ccoc2)S(=O)(=O)c2ccc(C(=O)O)cc2)cc1 noted as 20 to 40%

Lab book: inhibition at 25 µM of O=C(O)c1ccc(S(=O)(=O)N(Cc2ccccc2)Cc2ccccc2)cc1 noted as 20 to 40%

Lab book: inhibition at 25 µM of COc1ccc(CN(Cc2ccc(F)cc2)S(=O)(=O)c2ccc(C(=O)O)cc2)cc1 noted as 20 to 40%

Lab book: inhibition at 25 µM of COc1ccc(CN(Cc2ccccc2)S(=O)(=O)c2ccc(C(=O)O)cc2)cc1 noted as 20 to 40%

Lab book: inhibition at 25 µM of Cc1ccc(CN(Cc2ccccc2)S(=O)(=O)c2ccc(C(=O)O)cc2)cc1 noted as 20 to 40%

Lab book: inhibition at 25 µM of CCCN(Cc1ccc(OC)cc1)S(=O)(=O)c1ccc(C(=O)O)cc1 noted as 20 to 40%

Lab book: inhibition at 25 µM of COc1ccc(CN(Cc2cccc(Cl)c2)S(=O)(=O)c2ccc(C(=O)O)cc2)cc1 noted as 40 to 60%

----------
# target.desc: hT2R3 (Homo sapiens (Human))
# Sequence (Q9NYW6 whole entry): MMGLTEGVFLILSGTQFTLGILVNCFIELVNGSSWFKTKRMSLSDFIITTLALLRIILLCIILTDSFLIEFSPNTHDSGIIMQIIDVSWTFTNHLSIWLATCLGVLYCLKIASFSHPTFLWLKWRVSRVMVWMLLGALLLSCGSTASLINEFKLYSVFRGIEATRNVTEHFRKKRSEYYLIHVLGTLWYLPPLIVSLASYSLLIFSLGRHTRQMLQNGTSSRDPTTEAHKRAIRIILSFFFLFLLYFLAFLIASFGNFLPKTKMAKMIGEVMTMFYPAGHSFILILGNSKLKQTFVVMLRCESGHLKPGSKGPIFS
# method.notes: hT2R panel inhibition, transient HEK293 G16g44, agonist Chloroquine pH6.5 50 μM
# Format: cell-based
# assay.context: HEK293, compound at 25 μM; receptor activated to EC80 with the corresponding agonist; read-out: screening result against bitter receptor 3
readout.kind: inhibition at 25 µM

Lab book: inhibition at 25 µM of COc1ccc(CN(Cc2ccccc2C#N)S(=O)(=O)c2ccc(C(=O)O)cc2)cc1 [Example 5-25] noted as 60 to 80%

Lab book: inhibition at 25 µM of COc1ccccc1CN(Cc1ccccc1)S(=O)(=O)c1ccc(C(=O)O)cc1 [Example 5-71] noted as 20 to 40%

Lab book: inhibition at 25 µM of COc1cccc(CN(Cc2ccccc2)S(=O)(=O)c2ccc(C(=O)O)cc2)c1 [Example 5-74] noted as 20 to 40%

Lab book: inhibition at 25 µM of COc1ccc(CCN(Cc2ccccc2)S(=O)(=O)c2ccc(C(=O)O)cc2)cc1 [Example 5-81] noted as 20 to 40%

Lab book: inhibition at 25 µM of COc1ccc(CN2C(=O)N(c3ccc(C(=O)O)cc3)C(=O)C2Cc2ccccc2)cc1 (stereo not drawn) [Example 5-98] noted as 20 to 40%

Lab book: inhibition at 25 µM of COc1ccc(CN(Cc2ccccc2)C(=O)Nc2ccc(C(=O)O)cc2)cc1 [Example 5-94] noted as 20 to 40%

Lab book: inhibition at 25 µM of COc1ccc(CN(Cc2ccccc2)S(=O)(=O)c2ccc(C(=O)O)cc2)c(OC)c1 [Example 5-13] noted as 40 to 60%

Lab book: inhibition at 25 µM of COc1ccc(CN(Cc2cccc(C)c2)S(=O)(=O)c2ccc(C(=O)O)cc2)cc1 [Example 5-65] noted as 20 to 40%

Lab book: inhibition at 25 µM of CCCN(Cc1ccc(OC)cc1)S(=O)(=O)c1ccc(C(=O)O)cc1 [Example 5-17] noted as 20 to 40%

Lab book: inhibition at 25 µM of COc1ccccc1CN(Cc1ccco1)S(=O)(=O)c1ccc(C(=O)O)cc1 [Example 5-7] noted as 20 to 40%

Lab book: inhibition at 25 µM of COc1cccc(CN(Cc2ccc(C(=O)O)cc2)S(=O)(=O)c2ccc(O)cc2)c1 [Example 5-43] noted as 20 to 40%

Lab book: inhibition at 25 µM of COc1ccc(CN(Cc2cccc(OC)c2)S(=O)(=O)c2ccc(C(=O)O)cc2)cc1 [Example 5-34] noted as 40 to 60%

Lab book: inhibition at 25 µM of COc1ccc(CN(Cc2ccc(OC)cc2)S(=O)(=O)c2ccc(C(=O)O)cc2)cc1 [Example 5-30] noted as 40 to 60%

Lab book: inhibition at 25 µM of O=C(O)c1ccc(CN(Cc2cccc(F)c2)S(=O)(=O)c2ccccc2)cc1 [Example 5-104] noted as 40 to 60%

Lab book: inhibition at 25 µM of COc1ccc(CN(Cc2ccccc2OC)S(=O)(=O)c2ccc(C(=O)O)cc2)cc1 [Example 5-58] noted as 60 to 80%

Lab book: inhibition at 25 µM of CCc1ccc(CN(Cc2ccccc2)S(=O)(=O)c2ccc(C(=O)O)cc2)cc1 [Example 5-85] noted as 40 to 60%

Lab book: inhibition at 25 µM of COc1ccc(CN(Cc2ccc(F)c(F)c2)S(=O)(=O)c2ccc(C(=O)O)cc2)cc1 [Example 5-36] noted as 40 to 60%

Lab book: inhibition at 25 µM of COc1cc(OC)c(CN(Cc2ccccc2)S(=O)(=O)c2ccc(C(=O)O)cc2)c(OC)c1 [Example 5-15] noted as 40 to 60%

Lab book: inhibition at 25 µM of COc1ccc(CN(C2CCCc3ccccc32)S(=O)(=O)c2ccc(C(=O)O)cc2)cc1 (stereo not drawn) [Example 5-96] noted as 20 to 40%

Lab book: inhibition at 25 µM of COc1ccc(CN(Cc2ccc(OC)c(OC)c2)S(=O)(=O)c2ccc(C(=O)O)cc2)cc1 [Example 5-40] noted as 20 to 40%

Lab book: inhibition at 25 µM of CSc1ccc(CN(Cc2ccccc2)S(=O)(=O)c2ccc(C(=O)O)cc2)cc1 [Example 5-78] noted as 20 to 40%

Lab book: inhibition at 25 µM of COc1ccc(N(Cc2ccccc2)S(=O)(=O)c2ccc(C(=O)O)cc2)cc1 [Example 5-35] noted as 20 to 40%

Lab book: inhibition at 25 µM of O=C(O)c1ccc(S(=O)(=O)N(Cc2ccccc2)Cc2ccc(Cl)cc2)cc1 [Example 5-77] noted as 40 to 60%

Lab book: inhibition at 25 µM of CN(Cc1ccccc1)S(=O)(=O)c1ccc(C(=O)O)cc1 [Example 5-55] noted as 20 to 40%
